systemUnderTest: Cathepsin B (Homo sapiens)
Assign IC50 to each entry below.

Lookup: Reported IC50 for Cathepsin B (Homo sapiens), given CC(Nc1nc(C#N)nc2c1ncn2C1CCCC1)c1ccccc1 (stereo not drawn) ?
Found: > 30 µM

Lookup: Then what about the compound N#Cc1nc(NCc2ccc(Cl)cc2)c2ncn(Cc3cccnc3)c2n1 ?
Found: > 30 µM

Lookup: Also N#Cc1nc(NCc2ccc(Cl)cc2)c2ncn(C3CCCC3)c2n1 , if possible.
Found: > 30 µM

====

System: Trypanosoma brucei
assayProtocol: Antitrypanosomal activity against Trypanosoma brucei
Assay type: functional, organism-based
Assignment: determine reported pIC50 for the given molecules.
pIC50 here: minus log base 10 of the concentration, concentration in moles per litre.

Lookup: GET /values?readout=pIC50&item= COCOCCn1cnc2c(NCc3ccc(Cl)c(Cl)c3)nc(C#N)nc21
Found: 6.49

Lookup: Please give the result for COCCCn1cnc2c(NCc3ccc(Cl)c(Cl)c3)nc(C#N)nc21 too.
Found: 6.82

Lookup: Next molecule: N#Cc1nc(NCc2ccc(Cl)c(Cl)c2)c2ncn(CCO)c2n1
Found: 6.22

Lookup: Here is the next molecule: CCCCn1cnc2c(NCc3cccc(C)c3)nc(C#N)nc21
Found: 6.57

Lookup: Do the same for N#Cc1nc(NCCc2ccccc2)c2ncn(Cc3cccnc3)c2n1 please
Found: 5.36

Lookup: // repeat for N#Cc1nc(NCc2ccc(Cl)cc2)c2ncn(CCCO)c2n1 and report
Found: 6.51

Lookup: What do you have for CCCCn1cnc2c(NCc3ccc(Br)cc3)nc(C#N)nc21 ?
Found: 6.27

Lookup: # repeat for Cc1cccc(CNc2nc(C#N)nc3c2ncn3CC2CCCCC2)c1
Found: 5.66

Lookup: What about this molecule? CC(Nc1nc(C#N)nc2c1ncn2C1CCCC1)c1ccccc1 (stereo unspecified)
Found: 5.47

Lookup: What about this molecule? N#Cc1nc(NCc2ccc(Cl)cc2)c2ncn(Cc3ccccc3)c2n1
Found: 5.82

Lookup: What about N=C(N)c1ccc(/N=N/Nc2ccc(C(=N)N)cc2)cc1 [DIMINAZENE] ?
Found: 7.70

====

Observed log10 of IC50 for Procathepsin L (Homo sapiens), reported per entry below.
Remember, log10 of IC50, in µM.

Lookup: Enter reported log10 of IC50 observed with Procathepsin L (Homo sapiens) for N#Cc1nc(NCc2ccc(F)cc2)c2ncn(Cc3ccccc3)c2n1
Sequence (P07711 whole entry): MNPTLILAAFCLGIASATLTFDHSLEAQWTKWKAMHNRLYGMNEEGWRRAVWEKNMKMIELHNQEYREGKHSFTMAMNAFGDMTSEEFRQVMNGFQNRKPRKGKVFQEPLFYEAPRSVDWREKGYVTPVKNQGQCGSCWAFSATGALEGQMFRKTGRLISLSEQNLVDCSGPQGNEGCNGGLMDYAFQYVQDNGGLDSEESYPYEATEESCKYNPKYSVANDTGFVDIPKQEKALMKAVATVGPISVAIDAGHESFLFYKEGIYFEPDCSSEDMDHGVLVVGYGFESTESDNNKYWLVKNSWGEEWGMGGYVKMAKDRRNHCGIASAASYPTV
Found: 1.13

Lookup: Would you mind doing Cc1cccc(CNc2nc(C#N)nc3c2ncn3Cc2ccccc2)c1 as well?
Found: 1.02

Lookup: Please do the same for CC(Nc1nc(C#N)nc2c1ncn2C1CCCC1)c1ccccc1 (stereo not given) as well.
Found: 1.07

Lookup: Thanks! And N#Cc1nc(NCc2ccc(Cl)c(Cl)c2)c2ncn(CCCO)c2n1 ?
Found: -0.52

Lookup: Now consider N#Cc1nc(NCc2ccc(Cl)c(Cl)c2)c2ncn(Cc3ccccc3)c2n1 and answer again.
Found: 1.17

Lookup: Now the same for Cc1ccc(CNc2nc(C#N)nc3c2ncn3CCCO)cc1
Found: 0.07

Lookup: Likewise for CCCCn1cnc2c(NC(C)c3ccccc3)nc(C#N)nc21 (stereo not given) ?
Found: 0.97

====

systemUnderTest: Cathepsin B-like cysteine protease (Trypanosoma brucei)
Sequence (Q6R7Z5 whole entry): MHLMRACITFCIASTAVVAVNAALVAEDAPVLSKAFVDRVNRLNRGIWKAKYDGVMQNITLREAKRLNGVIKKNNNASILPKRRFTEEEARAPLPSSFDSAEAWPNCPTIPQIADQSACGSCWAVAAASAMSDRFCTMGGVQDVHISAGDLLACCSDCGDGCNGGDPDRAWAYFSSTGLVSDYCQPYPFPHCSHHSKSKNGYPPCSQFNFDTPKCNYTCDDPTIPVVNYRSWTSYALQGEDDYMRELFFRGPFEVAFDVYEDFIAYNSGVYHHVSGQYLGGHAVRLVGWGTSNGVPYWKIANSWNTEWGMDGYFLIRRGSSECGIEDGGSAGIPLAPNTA
assayProtocol: Inhibition of Trypanosoma brucei cathepsin B-like cysteine protease
readout: pIC50
Please treat pIC50 as minus the base-10 logarithm of the molar concentration.

Lookup: I am curious: what pIC50 value has been reported for Cc1ccc(CNc2nc(C#N)nc3c2ncn3CCCO)cc1 ?
Found: 5.38

Lookup: Repeat with CCCCn1cnc2c(NCc3ccc(OC)cc3)nc(C#N)nc21
Found: 5.22

Lookup: Then what about the compound N#Cc1nc(NCc2ccc(Cl)cc2)c2ncn(CCCCO)c2n1 ?
Found: 5.32

Lookup: For N#Cc1nc(NCCc2ccccc2)c2ncn(Cc3cccnc3)c2n1 then?
Found: 5.00

Lookup: Note, next up: N#Cc1nc(NCc2ccccc2)c2ncn(Cc3cccc(C(F)(F)F)c3)c2n1
Found: 5.55

Lookup: What do you get for N#Cc1nc(NCc2ccc(F)cc2)c2ncn(CCCCO)c2n1 ?
Found: 4.74

Lookup: Query N#Cc1nc(NCc2ccc(Cl)c(Cl)c2)c2ncn(CCCCCO)c2n1 next
Found: 6.03

Lookup: What about this compound? COCCCn1cnc2c(NCc3ccc(Cl)c(Cl)c3)nc(C#N)nc21
Found: 5.60

Lookup: Now consider COc1ccc(CNc2nc(C#N)nc3c2ncn3C2CCCC2)cc1 and answer again.
Found: 5.15

Lookup: CCCCn1cnc2c(NCc3ccc(Cl)cc3)nc(C#N)nc21 , same question.
Found: 5.00

Lookup: Record: N#Cc1nc(NCc2ccc(Cl)c(Cl)c2)c2ncn(CCCO)c2n1
Found: 6.57

Lookup: Would you kindly repeat that for N#Cc1nc(NC2CCCCC2)c2ncn(Cc3ccccc3)c2n1 ?
Found: 5.64

Lookup: # repeat for N#Cc1nc(NCc2ccc(F)cc2)c2ncn(Cc3ccccc3)c2n1
Found: 5.48

Lookup: Check CCCCn1cnc2c(NCc3ccccc3)nc(C#N)nc21 too.
Found: 4.85

Lookup: What would you report for N#Cc1nc(NCc2ccc(Cl)c(Cl)c2)c2ncn(CC(O)CO)c2n1 (stereo not given) ?
Found: 5.92

Lookup: Same read-out for COc1ccc(Cn2cnc3c(NCc4ccc(Cl)cc4)nc(C#N)nc32)cc1 ?
Found: 4.64

Lookup: Queued: N#Cc1nc(NCc2ccc(Cl)cc2)c2ncn(CCCO)c2n1
Found: 6.24
